system-name: RgCBM40 Y210A (Mediterraneibacter gnavus (Ruminococcus gnavus), UniProt A7B557, Y210A)
assay: ITC of sialoglycans binding to RgCBM40 mutant Y210A
Design: species or system Ruminococcus gnavus ATCC 29149
condition-parameters: ITC
pKd: −log10 of the molar value.
measure: pKd

Specify measured pKd for CC(=O)N[C@H]1[C@H]([C@H](O)[C@H](O)CO)OC(O)(C(=O)O)C[C@@H]1O (stereo partly drawn) [Neu5Ac, N-acetylneuraminic acid] .
< 1.60

Output measured pKd for this item: CC(=O)N[C@H]1[C@H]([C@H](O)[C@H](O)CO)O[C@@](O[C@H]2[C@@H](O)[C@@H](CO)O[C@@H](O[C@H]3[C@H](O)[C@@H](O)C(O)O[C@@H]3CO)[C@@H]2O)(C(=O)O)C[C@@H]1O (stereo partly drawn) [3′SL, α2-3 sialyllactose]
< 1.60

Give the value of pKd reported for the following: CC(=O)N[C@H]1[C@H]([C@H](O)[C@H](O)CO)O[C@@](OC[C@H]2O[C@@H](O[C@H]3[C@H](O)[C@@H](O)C(O)O[C@@H]3CO)[C@H](O)[C@@H](O)[C@H]2O)(C(=O)O)C[C@@H]1O (stereo partly drawn) [6′SL, α2,6-sialyllactose]
< 1.60

* * *

system-name: RgCBM40 R128A (Mediterraneibacter gnavus (Ruminococcus gnavus), UniProt A7B557, R128A)
assay: ITC of sialoglycans binding to RgCBM40 mutant R128A
condition-parameters: ITC
pKd: −log10 of the molar value.
Give pKd for every item shown.

State its pKd for this compound: CC(=O)N[C@H]1[C@H]([C@H](O)[C@H](O)CO)OC(O)(C(=O)O)C[C@@H]1O (stereo partly drawn)
< 1.60

Look up pKd of CC(=O)N[C@H]1[C@H]([C@H](O)[C@H](O)CO)O[C@@](OC[C@H]2O[C@@H](O[C@H]3[C@H](O)[C@@H](O)C(O)O[C@@H]3CO)[C@H](O)[C@@H](O)[C@H]2O)(C(=O)O)C[C@@H]1O (stereo partly drawn) and report it.
< 1.60

Check the records and state pKd for CC(=O)N[C@H]1[C@H]([C@H](O)[C@H](O)CO)O[C@@](O[C@H]2[C@@H](O)[C@@H](CO)O[C@@H](O[C@H]3[C@H](O)[C@@H](O)C(O)O[C@@H]3CO)[C@@H]2O)(C(=O)O)C[C@@H]1O (stereo partly drawn)
< 1.60

* * *

system-name: RgCBM40 (Mediterraneibacter gnavus (Ruminococcus gnavus), UniProt A7B557)
assay: STD NMR of sialoglycans with RgCBM40 WT
Design: species or system Ruminococcus gnavus ATCC 29149
condition-parameters: 1 mM sialoglycan, 50 μM RgCBM40 WT, 288 K; 'exception' = monosaccharides for which binding was not detected
measure: Binding to RgCBM40 detected by STD NMR

O=C(CO)N[C@H]1[C@H]([C@H](O)[C@H](O)CO)O[C@@](OC[C@H]2O[C@@H](O[C@H]3[C@H](O)[C@@H](O)C(O)O[C@@H]3CO)[C@H](O)[C@@H](O)[C@H]2O)(C(=O)O)C[C@@H]1O (stereo partly drawn) [6′SLGc, Neu5Gcα6Lac]; detected
CC(=O)N[C@H]1[C@H]([C@H](O)[C@H](O)CO)O[C@@](O[C@H]2[C@@H](O)[C@@H](CO)O[C@@H](O[C@H]3[C@H](O)[C@@H](NC(C)=O)C(O)O[C@@H]3CO)[C@@H]2O)(C(=O)O)C[C@@H]1O (stereo partly drawn) [3′SLN, Neu5Acα3LacNAcβ]; detected
CC(=O)NC1C(O)CC(OC2C(O)C(CO)OC(OC3C(O)C(CO)OC(OCCCN=[N+]=[N-])C3NC(C)=O)C2O)(C(=O)O)OC1C(O)C(O)CO (stereo not drawn) [STFαOC3H6N3]; detected
CC(=O)N[C@H]1[C@H]([C@H](O)[C@H](O)CO)OC(OC[C@H]2OC(O)[C@H](O)[C@@H](O)[C@H]2O)(C(=O)O)C[C@@H]1O (stereo partly drawn) [6′SGal, Neu5Acα6 Gal]; detected

// next entry
State, for RgCBM40 (Mediterraneibacter gnavus (Ruminococcus gnavus), UniProt A7B557), measured Binding to RgCBM40 detected by STD NMR of the compound listed here: CC(=O)NC1C(O)CC(OC2C(O)C(O)OC(CO)C2O)(C(=O)O)OC1C(O)C(O)CO (stereo not drawn) [3′SGal, Neu5Acα3Gal]
detected

* * *

Kindly supply the reported pKd values for the records listed here.
system-name: RgCBM40 E126A (Mediterraneibacter gnavus (Ruminococcus gnavus), UniProt A7B557, E126A)
assay: ITC of sialoglycans binding to RgCBM40 mutant E126A
condition-parameters: ITC
pKd: −log10 of the molar value.

Using the record for CC(=O)N[C@H]1[C@H]([C@H](O)[C@H](O)CO)O[C@@](OC[C@H]2O[C@@H](O[C@H]3[C@H](O)[C@@H](O)C(O)O[C@@H]3CO)[C@H](O)[C@@H](O)[C@H]2O)(C(=O)O)C[C@@H]1O (stereo partly drawn) , state its measured pKd.
< 1.60

Give me measured pKd, please, for this molecule: CC(=O)N[C@H]1[C@H]([C@H](O)[C@H](O)CO)O[C@@](O[C@H]2[C@@H](O)[C@@H](CO)O[C@@H](O[C@H]3[C@H](O)[C@@H](O)C(O)O[C@@H]3CO)[C@@H]2O)(C(=O)O)C[C@@H]1O (stereo partly drawn)
< 1.60

Please indicate pKd recorded for CC(=O)N[C@H]1[C@H]([C@H](O)[C@H](O)CO)OC(O)(C(=O)O)C[C@@H]1O (stereo partly drawn)
< 1.60

* * *

system-name: RgCBM40 R204A (Mediterraneibacter gnavus (Ruminococcus gnavus), UniProt A7B557, R204A)
Sequence (A7B557 50-237, stated change not applied): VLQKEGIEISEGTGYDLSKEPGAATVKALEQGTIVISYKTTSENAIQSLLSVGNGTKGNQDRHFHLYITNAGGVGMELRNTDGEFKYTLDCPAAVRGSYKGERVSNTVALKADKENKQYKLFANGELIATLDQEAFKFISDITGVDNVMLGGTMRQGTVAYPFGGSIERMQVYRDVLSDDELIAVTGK
assay: ITC of sialoglycans binding to RgCBM40 mutant R204A
Parameters: species or system Ruminococcus gnavus ATCC 29149
condition-parameters: ITC
measure: Kd

Write down the reported Kd (system: RgCBM40 R204A (Mediterraneibacter gnavus (Ruminococcus gnavus), UniProt A7B557, R204A)) of CC(=O)N[C@H]1[C@H]([C@H](O)[C@H](O)CO)O[C@@](O[C@H]2[C@@H](O)[C@@H](CO)O[C@@H](O[C@H]3[C@H](O)[C@@H](O)C(O)O[C@@H]3CO)[C@@H]2O)(C(=O)O)C[C@@H]1O (stereo partly drawn) [3′SL, α2-3 sialyllactose]
> 25 mM

Under RgCBM40 R204A (Mediterraneibacter gnavus (Ruminococcus gnavus), UniProt A7B557, R204A), report Kd for CC(=O)N[C@H]1[C@H]([C@H](O)[C@H](O)CO)O[C@@](OC[C@H]2O[C@@H](O[C@H]3[C@H](O)[C@@H](O)C(O)O[C@@H]3CO)[C@H](O)[C@@H](O)[C@H]2O)(C(=O)O)C[C@@H]1O (stereo partly drawn) [6′SL, α2,6-sialyllactose]
> 25 mM

Find Kd for CC(=O)N[C@H]1[C@H]([C@H](O)[C@H](O)CO)OC(O)(C(=O)O)C[C@@H]1O (stereo partly drawn) [Neu5Ac, N-acetylneuraminic acid] on RgCBM40 R204A (Mediterraneibacter gnavus (Ruminococcus gnavus), UniProt A7B557, R204A) and write it down.
> 25 mM
